Biological target: membrane LIGHT without residues 81-84 (EL4-NC-LIGHT cells) (human, UniProt O43557 1-240)
Sequence (O43557 other isoform, or with tags, fused parts or gaps): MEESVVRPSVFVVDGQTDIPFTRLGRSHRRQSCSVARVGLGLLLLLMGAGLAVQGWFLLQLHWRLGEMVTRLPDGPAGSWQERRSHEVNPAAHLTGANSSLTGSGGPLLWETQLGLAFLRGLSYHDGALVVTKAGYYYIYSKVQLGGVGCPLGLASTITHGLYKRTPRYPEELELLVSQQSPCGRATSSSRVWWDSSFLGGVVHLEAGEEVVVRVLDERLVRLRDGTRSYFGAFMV
Assay: cell-based or functional assay
Can you tell me IC50, inhibition of IL-8 secretion from HT-29 cells (EL4-NC-LIGHT cells) for the items I'm about to list?
Give bare numbers, in nM.

| binder | unit-abbreviation | measured-value |
| --- | --- | --- |
| 3B04_var6 (antibody, human IgG4, V domains shown, human IgG4 (S241P, L248E, Kabat); also called 3B04 VL2VH2 (var6)) VH: QVQLVQSGAEVKKPGASVKVSCKASGYTFTDYEMHWVRQAPGQGLEWIGEIDPETGDTAYSQKFQGRVTLTADKSTSTAYMEFSSLRSEDTAVYYCSRETDYFFDYWGQGTLVTVSS VL: DIQMTQSPSSLSASVGDRVTITCGASENIYGALNWYQRKQGKAPKLLIYGATNLADGVPSRFSGSGSGRDYTLTISSLQPEDFATYYCQNVLTTPWTFGQGTKLEIKR | nM | 0.08 |
| 3B04_var7 (antibody, human IgG4, V domains shown, human IgG4 (S241P, L248E, Kabat); also called 3B04 VL2VH3 (var7)) VH: QVQLVQSGAEVKKPGASVKVSCKASGYTFTDYEMHWVRQAPGQGLEWMGEIDPETGDTAYAQKFQGRVTLTADKSTSTAYMEFSSLRSEDTAVYYCSRETDYFFDYWGQGTLVTVSS VL: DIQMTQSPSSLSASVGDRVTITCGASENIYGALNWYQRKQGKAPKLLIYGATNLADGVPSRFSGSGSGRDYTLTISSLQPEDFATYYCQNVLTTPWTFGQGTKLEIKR | nM | 0.05 |

// below: IC50, inhibition of IL-8 secretion from HT-29 cells (EL4-NC-LIGHT cells) requested for another binder
Fill in the blank: the reported IC50, inhibition of IL-8 secretion from HT-29 cells (EL4-NC-LIGHT cells) of 3D12_var2 (antibody, human IgG4, V domains shown, human IgG4 (S241P, L248E, Kabat); also called 3D12 VL1VH2 (var2)) VH: QVQLVQSGAEVKKPGASVKVSCKASDYTFTDSEIHWVRQAPGQGLEWIGEIDPETGGTAYNQKFQGRVTLTADKSTSTAYMELSSLRSEDTAVYYCSRETDYFFDYWGQGTLVTVSS VL: DIQMTQSPSSLSASVGDRVTITCGASENIYGALNWYQRKQGKAPQLLIYGATNLADGVSSRFSGSGSGRDYTLTISSLQPEDVATYYCQNVLSTPWTFGQGTKLEIKR is ____.
0.74
